- target system: ecdysteroid receptor complex in Drosophila Kc cell cytosolic extract (Drosophila melanogaster, UniProt P34021)
- Construct: The supernatant, containing the cytosolic protein extract; endogenous in cells; host or cells: Drosophila Kc167 cells, cytosolic extract
- Sequence (P34021 whole entry): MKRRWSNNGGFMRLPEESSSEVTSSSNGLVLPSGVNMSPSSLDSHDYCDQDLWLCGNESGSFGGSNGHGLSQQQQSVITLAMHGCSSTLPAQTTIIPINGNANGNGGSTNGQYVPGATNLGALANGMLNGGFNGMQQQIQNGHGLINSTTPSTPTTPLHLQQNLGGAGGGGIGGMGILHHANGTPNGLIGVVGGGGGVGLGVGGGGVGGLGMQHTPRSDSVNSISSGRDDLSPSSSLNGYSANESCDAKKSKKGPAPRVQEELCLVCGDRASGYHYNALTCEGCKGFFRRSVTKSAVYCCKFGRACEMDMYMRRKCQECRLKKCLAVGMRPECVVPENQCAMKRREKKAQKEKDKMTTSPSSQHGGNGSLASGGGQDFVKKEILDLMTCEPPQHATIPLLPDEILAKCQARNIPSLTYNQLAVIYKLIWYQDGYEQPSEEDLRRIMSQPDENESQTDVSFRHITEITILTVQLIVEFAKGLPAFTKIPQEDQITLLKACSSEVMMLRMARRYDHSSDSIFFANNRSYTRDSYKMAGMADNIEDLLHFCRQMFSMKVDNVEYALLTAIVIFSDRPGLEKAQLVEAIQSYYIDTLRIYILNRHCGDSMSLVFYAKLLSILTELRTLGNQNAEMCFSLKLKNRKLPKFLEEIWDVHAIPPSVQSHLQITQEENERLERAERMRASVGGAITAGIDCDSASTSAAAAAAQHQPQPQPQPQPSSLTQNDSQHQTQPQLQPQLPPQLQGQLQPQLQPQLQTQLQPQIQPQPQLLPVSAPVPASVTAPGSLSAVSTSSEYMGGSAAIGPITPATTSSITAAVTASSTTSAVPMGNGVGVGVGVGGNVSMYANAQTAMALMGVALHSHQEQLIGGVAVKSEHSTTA
- Sequence (P20153 whole entry partner): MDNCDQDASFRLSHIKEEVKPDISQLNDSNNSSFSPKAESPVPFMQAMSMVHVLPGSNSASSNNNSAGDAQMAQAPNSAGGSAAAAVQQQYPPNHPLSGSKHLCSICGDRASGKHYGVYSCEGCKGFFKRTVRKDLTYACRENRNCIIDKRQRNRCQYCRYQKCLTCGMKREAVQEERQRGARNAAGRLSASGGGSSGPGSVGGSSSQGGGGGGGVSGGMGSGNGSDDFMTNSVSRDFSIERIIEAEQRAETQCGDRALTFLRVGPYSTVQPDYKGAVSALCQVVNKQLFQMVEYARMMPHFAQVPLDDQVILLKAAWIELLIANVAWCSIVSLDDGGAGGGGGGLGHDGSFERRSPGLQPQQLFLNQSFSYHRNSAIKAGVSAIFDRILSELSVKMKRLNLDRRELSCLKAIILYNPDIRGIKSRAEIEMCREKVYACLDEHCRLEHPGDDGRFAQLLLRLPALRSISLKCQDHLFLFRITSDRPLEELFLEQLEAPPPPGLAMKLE
- protocol notes: Competitive 3H-ponasterone A binding assay, Kc cytosolic ecdysone receptor extract
- assay setup: Table 2; read-out: Kd for Kc cells
recorded metric: pKd
pKd field: float, defined as -log10 of concentration (mol/L).

Worked examples follow.
Ask | Query: pKd; subject: `CCOc1cccc(C(=O)NN(C(=O)c2cc(C)cc(C)c2)C(C)(C)C)c1CC`
Reply | 8.28

Ask | Also check `CCc1c(OC)cccc1C(=O)NN(C(=O)c1cccc(OC)c1)C(C)(C)C`
Reply | 7.40

Ask | Also check `Cc1cc(C)cc(C(=O)N(NC(=O)c2ccc3c(c2C)OCCO3)C(C)(C)C)c1`
Reply | 7.22

Ask | Also check `COc1cccc(C(=O)NN(C(=O)c2cc(C)cc(C)c2)C(C)(C)C)c1C`
Reply | 6.91

Ask | Also check CC(C)CC[C@@H](O)[C@](C)(O)[C@H]1CC[C@@]2(O)C3=CC(=O)[C@@H]4C[C@@H](O)[C@@H](O)C[C@]4(C)[C@H]3CC[C@]12C [CE-4, ponasterone A, reference compound]
Reply | 9.15

Ask | Also check CC(C)CC[C@@H](O)[C@](C)(O)[C@H]1CC[C@@]2(O)C3=CC(=O)[C@]4(O)C[C@@H](O)[C@@H](O)C[C@]4(C)[C@H]3[C@H](O)C[C@]12C [CE-3, muristerone A, reference compound]
Reply | 8.64

Ask | Also check `CCc1c(OC)cccc1C(=O)NN(C(=O)c1cc(Cl)cc(Cl)c1)C(C)(C)C`
Reply | 7.19

Next:
Ask | Query: pKd; subject: `CCc1c(OC)cccc1C(=O)NN(C(=O)c1cc(C)cc(C)c1)C(C)(C)C`
Reply | 7.88

====

- target system: ecdysteroid receptor complex in Drosophila Kc cell cytosolic extract (Drosophila melanogaster)
- Construct: The supernatant, containing the cytosolic protein extract; endogenous in cells; host or cells: Drosophila Kc167 cells, cytosolic extract
- protocol notes: Competitive 3H-ponasterone A binding assay, Kc cytosolic ecdysone receptor extract
- assay setup: Table 3; read-out: Kd for Kc cells
- Experimental: The dipteran cell line Kc167, originally derived from Drosophila embryos (see Echalier, G. and Ohanessian, A. (1969) C. R. Acad. Sci., 268, 1771) was obtained from Dr. Peter Cherbas (Indiana University) and maintained as described (Cherbas, L., et. al., (1994), Methods in Cell Biology, 44, 161-179). A 400 ml culture of Kc Cells (3×10^7 cells per ml) was centrifuged at 700×g for 10 minutes at room temperature to pellet the cells. […]
recorded metric: Kd (nM)
Quick reminder: number only, in nM, skip the unit.

Worked examples follow.
Ask | Query: Kd; subject: CC(C)CC[C@@H](O)[C@](C)(O)[C@H]1CC[C@@]2(O)C3=CC(=O)[C@@H]4C[C@@H](O)[C@@H](O)C[C@]4(C)[C@H]3CC[C@]12C [CE-4, ponasterone A, reference compound]
Reply | 0.7

Ask | Also check CCOc1cccc(C(=O)NN(C(=O)c2cc(C)cc(C)c2)C(C)(C)C)c1CC [Ligand 12]
Reply | 5

Ask | Also check Cc1cc(C)cc(C(=O)N(NC(=O)c2ccc3c(c2C)OCCO3)C(C)(C)C)c1 [Ligand 2]
Reply | 47

Next:
Ask | Query: Kd; subject: COc1cccc(C(=O)NN(C(=O)c2cc(C)cc(C)c2)C(C)(C)C)c1C [Ligand 3]
Reply | 124
